endpoint_name: melting point (°C)
Dear colleague, please return just the value in °C, with no unit written.

Let me know recorded melting point for O=Cc1ccc(-c2cn3ccnc3s2)cc1 , thanks.
169

Please supply the value of reported melting point for the item N#CCc1ccc(OCc2ccccc2)c(OCc2ccccc2)c1CCc1cccc(OCc2ccccc2)c1
90

----------
Please respond with reported melting point for every item in the list.

Let me know recorded melting point for CC(Cl)(Cl)C(NC(=O)c1cccc(Cl)c1)NC(=NC#N)Nc1ccc(C(F)(F)F)nc1 (centres undefined) , thanks.
191 to 192 °C

Supply measured melting point of O=C(O)C1CCN(c2ncc(NS(=O)(=O)c3ccc(Br)cc3)c(NCc3ccccc3)n2)CC1 in your reply.
136 to 138 °C

Specify reported melting point for the molecule shown: CCOCc1cnc2c(NC(=O)c3c(Cl)cccc3Cl)cccc2c1N1CCN(C)C1=O
173 to 177 °C

Specify melting point for Cc1ccccc1-c1nc(-c2ccccc2C)nc(-c2ccccc2C)n1 and stop.
110 °C

----------
I'd be grateful if you could share measured melting point for these entries.

Kindly indicate its recorded melting point. Item: COc1ccc(C(=C(c2ccccc2)C(F)(F)F)c2ccc(F)cc2)cc1
52 to 56 °C

Please report melting point for the following compound: COc1nc(NC(=O)NS(=O)(=O)c2ccccc2C(=O)OC(C)C)nc(C(F)(F)F)n1
182 to 185 °C

Tell me its melting point given CCOc1cc2cc3ncc(C#N)c(Nc4cc(OC)c(Cl)cc4C)c3cc2cc1OCCN1CCOCC1 as the entry.
195 to 196 °C

Note down melting point recorded for Cc1nc2c(C(=O)NC(C)(C(N)=O)C(C)C)cc(C(=O)O)cc2n1C (stereo not given)
246 to 248 °C

Dear colleague, please send me the reported melting point for CC(C)(C)CC(C)(C)c1cc(-n2nc3ccc(C(F)(F)F)cc3n2)c(O)c(C(C)(C)c2ccccc2)c1 when you can.
119 to 121 °C

Hello, please tell me recorded melting point for this one: O=C(NCCO)c1ccnc(-c2cccc3cc(Cc4cc(F)cc(Cl)c4)sc23)c1
172 to 173 °C

Using known records, supply melting point for C[Si](C)(C)C#Cc1ccc(Br)cc1
62 °C

Given the compound CC1(C)C=C(N2Cc3ccccc3C2=O)c2cc(S(=O)(=O)C(F)(F)C(F)(F)C(F)(F)F)ccc2O1 , write its reported melting point.
164 to 166 °C

State its melting point for this compound: Nc1nc(Cl)nc(NC2CC2)n1
188 to 189 °C

Kindly indicate its recorded melting point. Item: CCOC(=O)c1ccc(-c2cc(-c3ccc4c(c3)C(C)(C)CCC4(C)C)ccc2OS(=O)(=O)C(F)(F)F)cc1
110 to 113 °C

Output melting point of COC(=O)c1cc(C)nc(C)c1
45 to 47 °C

Supply recorded melting point for Cc1ccsc1C(=O)NCCO[N+](=O)[O-] here.
74 to 76 °C

Quickly give me recorded melting point for COc1ccc(-c2[nH]nc3c2C(=O)c2c(NC=O)cccc2-3)cc1
280 °C

Quick one: give measured melting point for O=C(O)c1conc1-c1ccccc1
163 to 164 °C

Look up melting point of CSc1nc(Cl)c(C(Cl)Cl)c(Cl)n1 and report it.
66 °C

Please report melting point for the following compound: CN(C)C(=O)C1(C)CN(C(=O)Nc2ccc(Cl)cc2)N=C1c1ccc(Cl)cc1 (stereo not given)
194 to 197 °C

Please give the documented melting point of CC(c1ccccc1)(c1ccc(OC(=O)CCl)cc1)c1ccc(OC(=O)CCl)cc1
97 to 98 °C

Return value of melting point for input CCOC(=O)C(=Cc1cccc([N+](=O)[O-])c1)C(=O)CCl , no commentary.
108 to 111 °C

Identify melting point associated with the compound O=C1Nc2cccc(I)c2/C1=C/c1ccc[nH]1
256 to 258 °C

Fill in melting point for record Cc1c(C)c2c(c(C)c1NC(=O)CC(C)(C)C)C(c1ccccc1)CO2 (stereo not given)
146 to 147 °C

Note melting point for the compound shown: COc1cccc(C(O)CN(C)Cc2sc3c(=O)c(C(=O)NCc4ccc(Cl)cc4)cn(C)c3c2CO)c1 (stereo not given)
165 to 168 °C

Check the records and state melting point for CCCn1nc(C(C)C)c(C(N)=O)c1Cc1ccc(-c2ccccc2-c2nnn[nH]2)cc1
156 to 159 °C

# return recorded melting point for input CN(C)c1ccccc1CS(=O)c1cnc2ccccc2n1 (stereo not given)
114 to 115 °C

Identify measured melting point corresponding to CCCc1ccc(S(=O)(=O)Nc2ccc3nc(C)c(C)nc3c2)cc1
198 to 199 °C

Please give measured melting point of the following entry: COc1cc(C(=O)CCC(=O)c2cc(OC)c(OC)c(OC)c2)cc(I)c1O
189 to 190 °C

Look up melting point of CC(=O)NC1CCN(CCCCl)CC1 and report it.
74 to 77 °C

For O=C(Cn1sc2ccccc2c1=O)N1CCN(C(=O)OCc2ccccc2)CC1 , write its melting point.
138 to 142 °C

Retrieve melting point measured for CCOC(=O)N1CCN(c2nc(N(C(C)=O)C3CC3)ccc2[N+](=O)[O-])CC1 and print it.
90 to 93 °C

Provide melting point value for the following compound: COc1cc(C=C2SC(=O)NC2=O)cc(OC)c1O
248 to 249 °C

Note melting point for the compound shown: CC(=O)Oc1ccc2c(c1)CC1(C)Cc3ccccc3C1=CC2C (stereo not given)
131 to 133 °C

Report melting point for CCCCSC(Cn1cncn1)c1ccc(Cl)cc1Cl (stereo not given)
143 °C

Consider the compound Cn1ccc(-c2[nH]nc3c2C(=O)c2c(NC(N)=O)cccc2-3)c1 . State its measured melting point.
> 300 °C

Give a short answer stating reported melting point for CN1CCOC1=C(C#N)C=C1Nc2ccccc2C1=O .
222 to 226 °C

Supply melting point value. Item: Cc1ccc(NC(=O)c2ccc3ncccc3c2)cc1NC(=O)c1cccc(OCCN2CCOCC2)c1
216 to 217 °C

Let me know recorded melting point for COCC(=O)Nc1c(Cl)c(C)cc2nc(OC)c(OC)nc12 , thanks.
170 to 171 °C

Respond only with melting point recorded for COc1ccccc1-n1c(-c2cc(-c3ccccc3)c(N3CCOCC3)s2)nc2ccccc2c1=O
152 to 154 °C

Identify measured melting point associated with CN1CCCCC1CCc1ccccc1NC(=O)c1ccc(N)cc1 (stereo not given)
147 to 148 °C

Read the entry O=c1c2cnc3ccc(Cl)cc3c2on1-c1ccccc1 and write its reported melting point.
174 °C

Give a short answer stating reported melting point for CO/N=C(/C(=O)O)c1ccc(OCCOc2ccc3ccccc3c2)s1 .
118 to 120 °C

Supply recorded melting point for O=C(NO)c1ccc2c(c1)CCN(C(=O)NCCOc1ccccc1)C2 here.
120 to 123 °C

----------
endpoint_name: melting point

Give the reported value of melting point for this record: CC(C)(C)OC(=O)NCCNC(=O)c1ncccc1N
103 to 105 °C

Indicate the recorded melting point value for this compound: COC(=O)C(=CNc1ccc(F)cc1)C(=O)C=Cc1ccc(Cl)cc1
166 to 168 °C

Please report the measured melting point for O=c1n(CCCCN2CCC(n3c(=O)[nH]c4ccccc43)CC2)nc2n1-c1ccccc1OC2
173 to 176 °C

Give a short answer stating reported melting point for CC#CCOc1ccc(S(=O)(=O)C2(C(=O)O)CCN(Cc3ccc(OCCN4CCCCC4)cc3)CC2)cc1 .
172 °C

Tell me melting point reported for Cc1cc(O)c([N+](=O)[O-])cc1C(=O)c1c(Cl)cccc1Cl
170 °C

# return recorded melting point for entry COc1ccc(NC(=O)/C=C/c2c(OC)cc(OC)cc2OC)cc1
198 to 200 °C

Indicate the recorded melting point value for this compound: COc1ccc(OC)c(OCCO)c1
50 to 52 °C

// Input: COc1cccc(N(CC(=O)N(C)c2ccccc2)C(=O)CNC(=O)Nc2cccc(C(C)O)c2)c1 (racemic) . Output its melting point only.
115 °C

Tell me measured melting point for C=CCOC(=O)CC[C@H](NC(=O)Nc1ccc(COC(=O)Oc2ccc([N+](=O)[O-])cc2)cc1)C(=O)OCC=C please.
106 to 107 °C

----------
Consider the following compounds; for each one, report its melting point.

Retrieve melting point measured for CNS(=O)(=O)c1cn(C)c2ccc(OC)cc2c1=O and print it.
262 to 264 °C

// Input: COc1ccc(C(=O)Nc2ccccc2CCC2CCCCN2C)cc1 (stereo unspecified) . Output its melting point only.
127 to 128 °C

Tell me measured melting point for CC(C)CCCC(C)CCCC(C)CCCC(C)CCP(=O)(O)O (stereo unspecified) please.
69 to 72 °C

Indicate its recorded melting point; the compound in question is C#CCn1cc(C(=O)OCC)sc1=O
70 to 71 °C

# return recorded melting point for input Cc1ccc2ncnc(N3CCc4ccc(Cl)cc43)c2c1
138 to 141 °C

Specify melting point for C#CC1(O)CCC2C3CC(C)C4=CC(=O)CCC4C3CCC21CC (stereo unspecified) and stop.
148 to 151 °C

Provide only the value of recorded melting point for COC(=O)/C=C/n1cnc2ccc(Cl)cc2c1=O
171 to 172 °C

Fill in reported melting point for this entry: NC(=O)CCCCCc1nccc(NC(N)=NCC(F)(F)F)n1
179 to 181 °C

Given the compound CC(=O)Nc1ccc(Cn2cnc3c(-c4ccco4)ncnc32)cc1 , write its reported melting point.
278 to 280 °C

Identify melting point associated with the compound COc1c(F)cc(Cn2cnnc2S)cc1F
124 to 126 °C

Give the reported melting point for this compound. CCCCc1ncc(/C=C(\Cc2cccs2)C(=O)O)n1Cc1ccc(C(=O)O)cc1[N+](=O)[O-]
163 °C
